Quick list: melting point per entry.

[[record]]
molecule = "Cc1ccc(C(=S)c2ccc3n2CCCC3C#N)cc1 (configuration not stated)"
result = "118 to 119 °C"

[[record]]
molecule = "CC(C)N(C1CCCCC1)S(=O)(=O)N[C@@H](Cc1ccc(Nc2nccc3cnccc23)cc1)C(=O)O"
result = "162 °C"

[[record]]
molecule = "NS(=O)(=O)NC[C@H]1COc2cc(Cl)c(Cl)cc2O1"
result = "119 to 121 °C"

[[record]]
molecule = "Clc1ccc(C2(Cn3ccnc3)OCC(COc3ccc(-c4ccccc4)cc3)O2)c(Cl)c1 (configuration not stated)"
result = "156 °C"

[[record]]
molecule = "CC(C)C(=O)NCCCn1c(CCO)nc2c(N)nc3ccccc3c21"
result = "196 to 198 °C"


stdin: Item COc1cc(Nc2nccc(-c3ccc(CO)cc3)n2)cc(OC)c1OC : provide melting point
stdout: 171 to 172 °C

stdin: Item N#Cc1cnc2cnc(F)cc2c1Nc1ccc(Oc2ccccc2)cc1 : provide melting point
stdout: 211 to 213 °C

stdin: Item COc1nc(O)nc(C)c1Cl : provide melting point
stdout: 235 °C

stdin: Item Cc1cc(C)c(NC(=O)N(Cc2ccc3c(c2)-c2ccccc2-3)C2CCCCCC2)c(C)c1 : provide melting point
stdout: 123 to 124 °C

* * *

Quick list: melting point per entry.

The following molecules have reported results that may help.
[[record]]
molecule = "CCCc1c(C(=O)C(C)C)c2ccc(C(N)=O)cc2n1Cc1ccc(Br)cc1F"
endpoint_name = "melting point"
result = "197 to 198 °C"

[[record]]
molecule = "COc1ccc(C=C2CCc3c2nc2ccc(C)cn2c3=O)cc1"
endpoint_name = "melting point"
result = "210 to 211 °C"

[[record]]
molecule = "OCC1OC(c2ccc(F)c(Cc3ccc(-c4nccs4)s3)c2)C(O)C(O)C1O (stereo unspecified)"
endpoint_name = "melting point"
result = "162 °C"

[[record]]
molecule = "CNC1=C([N+](=O)[O-])C(=O)NC1=Cc1ccccc1"
endpoint_name = "melting point"
result = "238 °C"

[[record]]
molecule = "COc1ccccc1Oc1c(NS(=O)(=O)c2c(C)noc2C)nc(N2CCOCC2)nc1OCCO"
endpoint_name = "melting point"
result = "144 to 147 °C"

[[record]]
molecule = "Cc1cccc(-c2nc3ccc(OCCN(C)C)cc3n2Cc2ccccc2C(F)(F)F)c1"
endpoint_name = "melting point"
result = "93 °C"


stdin: Item COc1ccc(S(N)(=O)=O)cc1C(=O)Cl : provide melting point
stdout: 148 to 150 °C

stdin: Item CCN1C(=O)NC(Cc2c[nH]c3ccccc23)C1=O (stereo unspecified) : provide melting point
stdout: 167 to 170 °C

stdin: Item COC(=O)CN(C=O)C1c2ccccc2CCC1(C)C (stereo unspecified) : provide melting point
stdout: 74 to 75 °C

stdin: Item Nc1ccc(C(=O)Nc2ccc(-c3ccc(C(=O)N4CCN5CCC4CC5)o3)cc2)cc1 : provide melting point
stdout: 151 °C

stdin: Item CCN(CC)CCCNC(=O)/C(=C/C=C/c1cc2ccccc2o1)OC : provide melting point
stdout: 79 °C

stdin: Item O=C1c2ccc([N+](=O)[O-])cc2COc2cc(Nc3ccc(F)cc3F)ccc21 : provide melting point
stdout: 210 to 214 °C

stdin: Item Cn1ccc2c1CCN1C(=O)CCC21 (stereo unspecified) : provide melting point
stdout: 122 to 125 °C

stdin: Item CCCCCCCCCCOc1ccc(C(O)C(O)c2ccc(C(=O)OC)cc2)nc1CCC(=O)OC (mixture of isomers) : provide melting point
stdout: 88 to 92 °C

* * *

endpoint_name: melting point

The following compounds have reported results that may help.
[[record]]
compound = "O=C(c1cccc(Cl)c1)c1sc2cc(O)ccc2c1-c1ccccc1"
result = "215 °C"

[[record]]
compound = "CCCCC1(CCCC)NC(c2nc(-c3ccncc3)c[nH]2)Cc2c1[nH]c1ccccc21 (centres undefined)"
result = "200 to 205 °C"


stdin: Item CC(C)c1cc(C#N)cc(C(=O)Nc2ccc(F)cn2)n1 : provide melting point
stdout: 194 °C

stdin: Item COc1ccc(CSc2nnc(-c3ccc4occc4c3)o2)cc1C(F)(F)F : provide melting point
stdout: 135 to 136 °C

stdin: Item CC(=O)Nc1cc2c(Nc3ccc(Sc4nccn4C)c(Cl)c3)c(C#N)cnc2cc1N1CCC(N2CCCC2)CC1 : provide melting point
stdout: 243 to 255 °C

stdin: Item NS(=O)(=O)c1ccc(S(=O)(=O)N2CCc3cccc(-c4ccc(F)cc4)c32)cc1 : provide melting point
stdout: 189 to 190 °C

stdin: Item Clc1ccc(-c2cncn3cnnc23)cc1 : provide melting point
stdout: 193 to 195 °C

stdin: Item CNC(=O)CCC(=O)c1ccc(OCC2CO2)cc1 (centres undefined) : provide melting point
stdout: 133 to 140 °C

stdin: Item O=[N+]([O-])c1ccc(C=[N+]([O-])c2cccc(CO)c2)cc1 : provide melting point
stdout: 207 to 209 °C

* * *

Quick list: melting point per entry.

[[record]]
compound = "CCCCOc1cc(CCC(=O)O)ccc1CCCc1ccc(OS(=O)(=O)CC)c(OC)c1"
result = "64 °C"

[[record]]
compound = "CCS(=O)c1cnc(Cl)c(Cl)c1 (stereo not given)"
result = "78 to 79 °C"

[[record]]
compound = "CCCc1c(OCCCSc2cccc(CC(=O)O)c2F)ccc(C(C)=O)c1O"
result = "63 to 65 °C"

[[record]]
compound = "O=[N+]([O-])c1ccc(-n2cncn2)cc1F"
result = "90 to 91 °C"

[[record]]
compound = "c1ccc(CC2CCN(Cc3nc4ccccc4[nH]3)CC2)cc1"
result = "179 to 181 °C"

[[record]]
compound = "O=[N+]([O-])c1ccc(NC(CO)(CO)CO)cc1"
result = "165 °C"


stdin: Item CN1Cc2c(I)ncn2-c2ccc(F)cc2C1=O : provide melting point
stdout: 187 to 188 °C

stdin: Item CC1(C)C2CC[C@@]1(N1CCOCC1)[C@H](O)C2 : provide melting point
stdout: 35 to 36 °C

stdin: Item C[C@@H](S[C@H]1CO[C@H](c2ccc(C(=O)NCc3ccc(C#N)cc3)cc2)OC1)[C@](O)(Cn1cncn1)c1ccc(F)cc1F : provide melting point
stdout: 188 °C

stdin: Item CC(C)(C)C(=O)c1ccc(C(=O)NC(=O)c2ccc(C(=O)C(C)(C)C)cc2)cc1 : provide melting point
stdout: 131 to 132 °C

* * *

endpoint_name: melting point

The following compounds have reported results that may help.
[[record]]
compound = "CCOC(=O)Cn1ncc2c(Br)c(OC)ccc21"
endpoint_name = "melting point"
result = "106 to 107 °C"

[[record]]
compound = "O=C(Nc1nnn[nH]1)c1ccccc1[N+](=O)[O-]"
endpoint_name = "melting point"
result = "272 to 273 °C"

[[record]]
compound = "CC1(CC2CCCC2)Cc2cc(O)c(Cl)c(Cl)c2C1=O (stereo not given)"
endpoint_name = "melting point"
result = "188 to 190 °C"

[[record]]
compound = "COc1nc(C)nc(NC(=O)NS(=O)(=O)c2cc(OC(F)F)ccc2OC(F)F)n1"
endpoint_name = "melting point"
result = "113 °C"

[[record]]
compound = "Cc1cc2c(-c3ccc(Br)cc3)c(CC(=O)Nc3ccc(F)cc3C(F)(F)F)c(=O)oc2cc1Cl"
endpoint_name = "melting point"
result = "262 to 264 °C"


stdin: Item CC(=O)OC1CC2(C)C(CCC23OCCO3)C2CC=C3CC(O)CCC3(C)C12 (stereo not given) : provide melting point
stdout: 125 to 126 °C

stdin: Item CCCC(C)N1CCC2(CC1)CSC1=C(O2)c2ccccc2C(=O)C1=O (stereo not given) : provide melting point
stdout: 109 to 111 °C

stdin: Item COc1cc(OC)cc(-c2nc(C)nn2-c2ccc(S(N)(=O)=O)cc2)c1 : provide melting point
stdout: 207 to 208 °C

stdin: Item CC1(O)CCC2(C)C(CCC3C2CCC2(C)C3CCC2[N+](=O)[O-])C1 (stereo not given) : provide melting point
stdout: 211 to 213 °C

stdin: Item Nc1ccc(C(=O)N2CCC[C@@H]3CCCC[C@H]32)cc1[N+](=O)[O-] (relative stereo) : provide melting point
stdout: 212 to 215 °C

* * *

Quick list: melting point per entry.

[[record]]
molecule = "CNCCc1ccc(CCC(=O)O)cc1"
endpoint_name = "melting point"
result = "211 to 212 °C"

[[record]]
molecule = "CC(C)(C)c1ccc(Cn2cc(C(=O)C(=O)O)c3cc(-c4cccc(Cl)c4)ccc32)cc1"
endpoint_name = "melting point"
result = "138 to 139 °C"

[[record]]
molecule = "CNc1ccc(-n2nc3c4ccccc4[nH]cc-3c2=O)cc1"
endpoint_name = "melting point"
result = "302 to 304 °C"


stdin: Item C=CCNC1=NS(=O)(=O)c2ccc(Cl)cc2N1 : provide melting point
stdout: 284 to 286 °C

stdin: Item COc1ccccc1N1CCN([C@@H]2Cc3c(O)cccc3C[C@H]2O)CC1 (relative stereo) : provide melting point
stdout: 218 to 220 °C

stdin: Item COc1cc(CN2CCCC2)ccc1OCC(=O)Nc1ccc(-c2ccc(Cl)cc2)cc1 : provide melting point
stdout: 89 to 91 °C

stdin: Item CCOc1ccc(C(=O)Nc2ccc3ccc(Cl)nc3n2)cc1 : provide melting point
stdout: 208 °C

stdin: Item NC(=O)c1cc(Cl)c(Cl)c(Cl)n1 : provide melting point
stdout: 169 to 170 °C

stdin: Item N#Cc1ccc(C#N)c(Sc2ccccc2)c1 : provide melting point
stdout: 106 °C

stdin: Item CCCCCCCNC(=O)Nc1ccccc1CNCc1cc(C(C)(C)C)c(O)c(C(C)(C)C)c1 : provide melting point
stdout: 135 to 138 °C

stdin: Item Nc1cc(F)c([N+](=O)[O-])cc1F : provide melting point
stdout: 153 °C
